assay: Thermodynamic solubility in 50 mM phosphate buffer pH 7.4; type: physicochemical; conditions: aqueous buffer, thermodynamic from solid, 50 mM phosphate buffer pH 7.4, room temperature
measured_quantity: solubility thermodynamic at 24 h (µg/mL)

Here are 3 compounds together with their reported answers.
- compound: "COCc1cc(-c2nnc3c4ccccc4c(OCc4ccc(C(=O)N5CC(OC)C5)cn4)nn23)no1 [Compound 42]"
  measurement_unit: "µg/mL"
  solubility thermodynamic at 24 h: 6.02
- compound: "COCc1cc(-c2nnc3c4ccccc4c(OCc4ccc(C(=O)NCC(F)(F)F)cn4)nn23)no1 [Compound 15]"
  measurement_unit: "µg/mL"
  solubility thermodynamic at 24 h: 0.84
- compound: "COCc1cc(-c2nnc3c4ccccc4c(OCc4ccc(C(=O)N5CCOCC5)cn4)nn23)no1 [Compound 38]"
  measurement_unit: "µg/mL"
  solubility thermodynamic at 24 h: 8.7

[a] Cc1cc(-c2nnc3c4ccccc4c(OCc4ccc(C(=O)NC(C)C)cn4)nn23)no1 [reference compound]
[b] Cc1cc(-c2nnc3c4ccccc4c(OCc4ccc(C(=O)NC5CC5)cn4)nn23)no1 [reference compound]
stdin: Out of a and b , name the one with the higher solubility thermodynamic at 24 h. Your choice should be expressed through its label.
stdout: a
(a: 1.8 µg/mL, b: 0.82 µg/mL)

[I] COCc1cc(-c2nnc3c4ccccc4c(OCc4ccc(C(=O)N(C)C)cn4)nn23)no1 [Compound 37]
[II] Cc1cc(-c2nnc3c4ccccc4c(OCc4ccc(C(=O)N5CCC(F)(F)CC5)cn4)nn23)no1 [reference compound]
stdin: Please indicate which has the smaller reported solubility thermodynamic at 24 h: I , or II . Your choice should be expressed through its label.
stdout: II
(II: 0.98 µg/mL, I: 84.7 µg/mL)
